measuredTarget: recombinant human NaV1.8 stably transfected HEK cells (Homo sapiens)
Construct: expressed in transfected cells; host or cells: HEK cells, stably transfected
Sequence (Q9Y5Y9 whole entry): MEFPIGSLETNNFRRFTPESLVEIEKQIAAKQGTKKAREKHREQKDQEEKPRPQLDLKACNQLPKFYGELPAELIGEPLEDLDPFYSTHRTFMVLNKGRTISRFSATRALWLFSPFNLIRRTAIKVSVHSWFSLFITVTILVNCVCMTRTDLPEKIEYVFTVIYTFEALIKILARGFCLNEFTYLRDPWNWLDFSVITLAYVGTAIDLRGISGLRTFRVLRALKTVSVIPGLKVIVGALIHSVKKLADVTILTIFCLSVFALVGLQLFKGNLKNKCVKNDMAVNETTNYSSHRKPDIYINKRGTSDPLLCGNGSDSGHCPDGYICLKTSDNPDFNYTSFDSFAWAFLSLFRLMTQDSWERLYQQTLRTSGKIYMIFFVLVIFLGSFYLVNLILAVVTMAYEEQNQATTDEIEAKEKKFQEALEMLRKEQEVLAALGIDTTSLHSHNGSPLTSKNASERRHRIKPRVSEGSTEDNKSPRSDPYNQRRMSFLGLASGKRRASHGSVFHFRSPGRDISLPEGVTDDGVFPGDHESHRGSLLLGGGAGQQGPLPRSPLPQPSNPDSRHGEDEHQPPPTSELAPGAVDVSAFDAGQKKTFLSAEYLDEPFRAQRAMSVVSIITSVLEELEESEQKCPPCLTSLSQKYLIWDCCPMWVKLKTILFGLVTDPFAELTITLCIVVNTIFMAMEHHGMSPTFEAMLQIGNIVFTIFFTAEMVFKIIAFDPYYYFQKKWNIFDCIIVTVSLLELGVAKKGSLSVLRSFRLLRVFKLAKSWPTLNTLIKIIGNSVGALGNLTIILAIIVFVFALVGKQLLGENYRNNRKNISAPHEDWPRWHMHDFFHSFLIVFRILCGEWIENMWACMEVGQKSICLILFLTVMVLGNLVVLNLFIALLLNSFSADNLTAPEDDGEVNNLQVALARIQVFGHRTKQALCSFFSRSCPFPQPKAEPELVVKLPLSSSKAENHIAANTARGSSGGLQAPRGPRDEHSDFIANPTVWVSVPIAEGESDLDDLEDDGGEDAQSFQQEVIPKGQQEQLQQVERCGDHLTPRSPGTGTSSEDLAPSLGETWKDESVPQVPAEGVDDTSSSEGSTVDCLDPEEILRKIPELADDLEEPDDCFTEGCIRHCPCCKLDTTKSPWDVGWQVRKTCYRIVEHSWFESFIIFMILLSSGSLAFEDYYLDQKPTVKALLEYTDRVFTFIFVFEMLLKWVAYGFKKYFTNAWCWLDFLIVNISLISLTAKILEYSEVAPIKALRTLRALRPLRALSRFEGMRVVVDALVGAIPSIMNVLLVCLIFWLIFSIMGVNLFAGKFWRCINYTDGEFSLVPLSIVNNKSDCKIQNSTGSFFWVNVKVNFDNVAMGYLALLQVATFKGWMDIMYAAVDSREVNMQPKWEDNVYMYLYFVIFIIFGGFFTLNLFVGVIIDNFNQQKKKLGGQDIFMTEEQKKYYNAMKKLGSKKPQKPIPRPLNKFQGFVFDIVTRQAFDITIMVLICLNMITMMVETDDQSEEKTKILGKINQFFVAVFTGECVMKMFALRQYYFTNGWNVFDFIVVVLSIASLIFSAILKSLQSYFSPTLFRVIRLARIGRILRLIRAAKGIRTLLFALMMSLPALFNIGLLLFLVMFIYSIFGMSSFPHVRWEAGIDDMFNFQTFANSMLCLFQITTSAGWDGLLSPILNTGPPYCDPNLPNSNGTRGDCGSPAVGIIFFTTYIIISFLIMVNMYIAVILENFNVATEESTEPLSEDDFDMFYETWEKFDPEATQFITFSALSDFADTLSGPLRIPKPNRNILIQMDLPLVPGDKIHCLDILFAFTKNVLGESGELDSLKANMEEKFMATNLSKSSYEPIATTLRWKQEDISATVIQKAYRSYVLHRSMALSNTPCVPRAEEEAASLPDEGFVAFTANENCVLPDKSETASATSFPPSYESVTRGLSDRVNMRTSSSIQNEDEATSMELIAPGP
assayNotes: Compound profiling on NaV1.8, human NaV1.8 cell line, SyncroPatch384PE automated patch clamp assay (Example 102, first set of compounds, Table 16)
Type: cell-based
recordedConditions: resting state block (P1 measurement), human NaV1.8 HEK cells, Table 16 (first set of compounds), read-out: P1IC50
pIC50: −log10 of the molar value.
property: pIC50

# input Any idea what pIC50 was measured for N#Cc1cc(F)ccc1Oc1ncc(C(F)(F)F)cc1C(=O)Nc1cccc(C(N)=O)c1 ?
# output 6.70 to 7.40

# input Any idea what pIC50 was measured for CS(=N)(=O)c1cccc(NC(=O)c2cc(C(F)(F)F)cnc2OC23CC(C(F)(F)F)(C2)C3)c1 (centres unmarked) ?
# output 6.70 to 7.40

# input Any idea what pIC50 was measured for Cc1cc(F)ccc1Oc1nnc(C(F)(F)F)c(NC2CC2)c1C(=O)Nc1cccc([S@@](C)(=N)=O)c1 ?
# output 6.30 to 6.70

# input Any idea what pIC50 was measured for CS(=O)(=O)c1cccc(NC(=O)c2cc(C(F)(F)F)cnc2OCC2CC2(F)F)c1 (centres unmarked) ?
# output 6.70 to 7.40

# input Any idea what pIC50 was measured for CS(=O)(=O)c1cccc(NC(=O)c2cc(C(F)(F)F)cnc2OCC2CCC2(F)F)c1 (centres unmarked) ?
# output 6.30 to 6.70

# input Any idea what pIC50 was measured for COc1c(Oc2ncc(Br)cc2C(=O)Nc2ccnnc2)ccc(F)c1F ?
# output 7.40 to 7.70

# input Any idea what pIC50 was measured for Cc1c(C(F)(F)F)nnc(Oc2ccc(OC(C)C)c(F)c2F)c1C(=O)Nc1cccc(S(C)(=N)=O)c1 (single isomer, unassigned) [Compound 1502] ?
# output ≥ 7.70

# input Any idea what pIC50 was measured for Cc1cc(OC(F)(F)F)ccc1Oc1ncc(C(F)(F)F)cc1C(=O)Nc1cccc(S(C)(=O)=O)c1 ?
# output ≥ 7.70

# input Any idea what pIC50 was measured for COc1cc(C#N)ccc1Oc1nnc(C(F)(F)F)c(C)c1C(=O)Nc1ccc[n+]([O-])c1 ?
# output 6.70 to 7.40

# input Any idea what pIC50 was measured for Cc1cc(F)ccc1Oc1nccc(C(F)(F)F)c1C(=O)Nc1cccc(S(C)(=N)=O)c1 (centres unmarked) ?
# output 6.70 to 7.40

# input Any idea what pIC50 was measured for Cc1c(C(F)(F)F)nnc(Oc2ccc(OC(F)F)c(F)c2F)c1C(=O)Nc1cccc(S(C)(=N)=O)c1 (single isomer, unassigned) [Compound 1511] ?
# output ≥ 7.70

# input Any idea what pIC50 was measured for COc1cc(C#N)cc(Oc2ncc(C(F)(F)F)cc2C(=O)Nc2cccc(S(C)(=N)=O)c2)c1 (centres unmarked) ?
# output 6.30 to 6.70

# input Any idea what pIC50 was measured for COc1c(Oc2nnc(C(F)(F)F)c(C)c2C(=O)Nc2cccc(S(C)(=N)=O)c2)ccc(F)c1F (single isomer, unassigned) [Compound 1474] ?
# output ≥ 7.70

# input Any idea what pIC50 was measured for Cc1c(C(F)(F)F)nnc(Oc2ccc(OC(F)(F)F)cc2F)c1C(=O)Nc1cccc(S(C)(=N)=O)c1 (centres unmarked) [Compound 1495] ?
# output ≥ 7.70
